The measurements presented in this section are drawn from ChEMBL document CHEMBL1165907.

Tested on: Rattus norvegicus
Assay: Antidiabetic activity in Wistar rat assessed as change in blood glucose level at 50 mg/kg, ig after 3 hrs (RVb = -9.83 % +/- 5.67%)
Format: functional
Details: route intragastric
Cut-off -10% on Activity, inclusive. At or above means YES; below means NO.

Given the entry O=c1c(O)c(-c2ccc(O)c(O)c2)oc2cc(O)cc(O)c12 , answer whether its Activity meets or surpasses -10%. NO

Given the entry COc1ccc(Cl)cc1C(=O)NCCc1ccc(S(=O)(=O)NC(=O)NC2CCCCC2)cc1 [GLYBURIDE] , answer whether its Activity meets or surpasses -10%. NO

Given the entry O=c1cc(-c2ccccc2)oc2cc(O)ccc12 [7-HYDROXYFLAVONE] , answer whether its Activity meets or surpasses -10%. NO

Given the entry O=c1c(O)c(-c2ccccc2)oc2ccccc12 , answer whether its Activity meets or surpasses -10%. YES

Given the entry O=c1cc(-c2ccccc2)oc2ccc(O)cc12 [6-HYDROXYFLAVONE] , answer whether its Activity meets or surpasses -10%. NO
